Known Plant response rating, Johnsongrass of a selection of compounds
Tested on: johnsongrass (Sorghum halepense)
Test: Test C greenhouse herbicide test, pre- and postemergence
Type: in vivo
Conditions: Postemergence, 125 g ai/ha; scale 0 to 100, 0 is no effect, 100 is complete control

Documented Plant response rating, Johnsongrass of `Cc1ccc2sc(C)c(-c3c(O)c(C)nn(C)c3=O)c2c1` : 0

// Plant response rating, Johnsongrass lookup, compound = `Cc1nn(C)c(=O)c(-c2cc(F)cc3ccccc23)c1OS(C)(=O)=O` , result: 10

Record `CCOC(=O)Oc1c(C)nn(C)c(=O)c1-c1c(C)sc2ccc(C)cc12` . Reported Plant response rating, Johnsongrass: 10

// recorded Plant response rating, Johnsongrass for `CCCC(=O)Oc1c(C)nn(C)c(=O)c1-c1c(C)sc2c(C)cc(C)cc12` : 10

* * *

System: velvetleaf (Abutilon theophrasti)
Assay: Test C greenhouse herbicide test, pre- and postemergence
Assay type: in vivo
Settings: postemergence, 62 g ai/ha; scale 0 to 100, 0 no effect, 100 complete control
MEASUREMENT KIND: Velvetleaf plant response rating
// no unit string in output, number only

{"columns": ["MOLECULE", "Velvetleaf plant response rating"],
 "data": [
  ["Cc1ccc2ccccc2c1-c1c(O)cnn(C)c1=O", 0],
  ["CC(=O)Oc1c(C#N)nn(C)c(=O)c1-c1c(C)ccc2ccccc12", 70],
  ["COC(=O)Oc1c(C)nn(C)c(=O)c1-c1c(C)sc2c(C)cc(C)cc12", 85],
  ["CCOC(=O)Oc1c(C)nn(C)c(=O)c1-c1c(C)sc2c(C)cc(C)cc12", 90],
  ["C#CCOC(=O)Oc1c(C)nn(C)c(=O)c1-c1c(C)sc2ccc(C)cc12", 85]
]}

What the record says about `Cc1ccc2sc(C)c(-c3c(O)c(C)nn(C)c3=O)c2c1` : Velvetleaf plant response rating is 85

Form field Velvetleaf plant response rating, entry `COc1nn(C)c(=O)c(-c2c(C)ccc3ccccc23)c1O` : 90

Record `CC(=O)Oc1c(C)nn(C)c(=O)c1-c1c(C)oc2ccc(C)cc12` . Reported Velvetleaf plant response rating: 20

* * *

Test system: bromegrass, downy (downy bromegrass, Bromus tectorum)
Assay: Test D controlled growth environment herbicide test, pre- and postemergence
Format: in vivo
Details: postemergence, 62 g ai/ha; scale 0 to 100, 0 no effect, 100 complete control
I'd appreciate it if you marked entries 1 (yes) when Plant response rating, Bromegrass, Downy is lower than 60 and 0 (no) when it is not.

Recorded results for 3 compounds are shown here.
{"columns": ["MOLECULE", "LABEL VALUE"],
 "data": [
  ["Cc1ccc2ccccc2c1-c1c(O)c(C)nn(C)c1=O", "0 (no)"],
  ["CCOC(=O)Oc1c(C)nn(C)c(=O)c1-c1c(C)ccc2ccccc12", "1 (yes)"],
  ["CC(=O)Oc1c(C)nn(C)c(=O)c1-c1c(C)cc(C)c2ccccc12", "1 (yes)"]
]}

Alright, here's another compound for you.
Request: Criterion: Plant response rating, Bromegrass, Downy strictly below 60. Is it met by `CC(=O)Oc1c(C)nn(C)c(=O)c1-c1c(C)sc2c(C)cc(C)cc12` ?
Result: 1 (yes)

* * *

System: beggarticks (hairy beggarticks, Bidens pilosa)
Assay: Test E greenhouse herbicide test, pre- and postemergence
Assay type: in vivo
Conditions: Preemergence, 31 g ai/ha; scale 0 to 100, 0 no effect, 100 complete control
Quick list: Plant response rating, Beggarticks per entry.

The cases that follow already have their Plant response rating, Beggarticks on record.
{"columns": ["MOLECULE", "Plant response rating, Beggarticks"],
 "data": [
  ["COC(=O)Oc1c(C)nn(C)c(=O)c1-c1c(C)sc2c(C)cc(C)cc12 [Compound 81]", 80],
  ["CC(=O)Oc1c(C)nn(C)c(=O)c1-c1c(C)sc2ccc(C)cc12 [Compound 25]", 100]
]}

Plant response rating, Beggarticks in this record for Cc1cc(C)c2sc(C)c(-c3c(OC(=O)OCCCl)c(C)nn(C)c3=O)c2c1 [Compound 85] : 90

molecule CCC(=O)Oc1c(C)nn(C)c(=O)c1-c1c(C)sc2ccc(Cl)cc12 [Compound 109] , Plant response rating, Beggarticks observed: 75
